System: Aβ42 production in H4 APP751 SWE clone 8.20 cells
Assay: Cellular assay for inhibition of Aβ1-42 production
Assay type: cell-based
Conditions: H4 cells stably transfected with APP751 Swedish mutation (clone 8.20), 19 h incubation
Decide using IC50 alone. Strictly below 500 nM: Criterion met. Equal to or above 500 nM: Criterion not met.

Q: In the record for NC1=N[C@@]2(c3cc(NC(=O)c4ccccn4)ccc3F)OCC[C@H]2CS1 (racemic) , is IC50 less than 500 nM?
Ans: Criterion not met

Q: In the record for "N#Cc1ccc(C(=O)Nc2ccc(F)c([C@@]34N=C(N)SC[C@@H]3CCO4)c2)nc1" , is IC50 less than 500 nM?
Ans: Criterion met

Q: In the record for NC1=N[C@@]2(c3cc(NC(=O)c4ccc(F)cn4)ccc3F)OCC[C@H]2CS1 (racemic) , is IC50 less than 500 nM?
Ans: Criterion met

Q: In the record for "NC1=N[C@@]2(c3cc(NC(=O)c4ccc(Cl)cn4)ccc3F)OCC[C@H]2CS1" , is IC50 less than 500 nM?
Ans: Criterion met

Q: In the record for CC#Cc1cncc(-c2cc([C@@]34N=C(N)SC[C@@H]3CCO4)c(F)cc2F)c1 (racemic) , is IC50 less than 500 nM?
Ans: Criterion not met

Q: In the record for "NC1=N[C@@]2(c3cc(-c4cncnc4)c(F)cc3F)OCCC[C@H]2CS1" , is IC50 less than 500 nM?
Ans: Criterion not met
